# TESTED TARGET: UniProt P27338
# Sequence (P27338 whole entry): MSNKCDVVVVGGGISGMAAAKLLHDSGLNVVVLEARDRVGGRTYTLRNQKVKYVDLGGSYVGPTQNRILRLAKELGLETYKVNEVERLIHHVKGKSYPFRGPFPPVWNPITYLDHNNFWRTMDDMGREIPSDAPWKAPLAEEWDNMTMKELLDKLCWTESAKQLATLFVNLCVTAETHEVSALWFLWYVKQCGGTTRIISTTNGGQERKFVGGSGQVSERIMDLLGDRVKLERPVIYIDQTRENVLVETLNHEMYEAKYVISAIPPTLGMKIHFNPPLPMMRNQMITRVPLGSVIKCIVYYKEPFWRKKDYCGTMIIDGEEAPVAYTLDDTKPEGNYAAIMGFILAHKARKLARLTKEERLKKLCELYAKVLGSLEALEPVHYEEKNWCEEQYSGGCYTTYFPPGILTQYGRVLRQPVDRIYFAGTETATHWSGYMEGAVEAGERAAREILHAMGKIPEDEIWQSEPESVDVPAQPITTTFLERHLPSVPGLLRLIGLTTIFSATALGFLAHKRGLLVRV
# ASSAY COMMENT: Inhibition of recombinant human MAO-B using tyramine as substrate preincubated for 30 mins followed by substrate addition and measured after 30 mins by amplex red reagent based fluorometric method
pIC50: −log10 of the molar value.

SMI	TESTED TARGET	pIC50
O=C(OCc1ccc(Cl)cc1)c1coc2ccccc2c1=O	UniProt P27338	5.00
